Ref: the supplement of paper PMC10567573

B1: NP_015628.1 (parent)
chain: EQRNSRWNTVLRAVKAKTHHLEP

Variants of: B1
Experiment: protein stability index of a GFP-peptide fusion (GPS, HEK-293T) (PSI 1-6); higher = more stable;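 note: lentivirally expressed fusion library, cells FACS-sorted into six equal-sized GFP/DsRed ratio bins, PSI computed from sequencing read fractions per bin weighted by bin number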
Conditions: c terminus: native
Property Name: protein stability index
Enter a number only.

Query string: I would be grateful if you could share the reported protein stability index for Q2R .
Result string: 2.9

Query string: I would be grateful if you could share the reported protein stability index for S5P .
Result string: 2.78

Query string: I would be grateful if you could share the reported protein stability index for S5K .
Result string: 2.28

Query string: I would be grateful if you could share the reported protein stability index for N4R .
Result string: 2.96

Query string: I would be grateful if you could share the reported protein stability index for L11T .
Result string: 3.12

Query string: I would be grateful if you could share the reported protein stability index for H20Q .
Result string: 2.89

Query string: I would be grateful if you could share the reported protein stability index for Q2L .
Result string: 2.84

Query string: I would be grateful if you could share the reported protein stability index for P23Q .
Result string: 5.08

Query string: I would be grateful if you could share the reported protein stability index for V14H .
Result string: 3.06

Query string: I would be grateful if you could share the reported protein stability index for Q2T .
Result string: 2.38

Query string: I would be grateful if you could share the reported protein stability index for K17D .
Result string: 3.1

Query string: I would be grateful if you could share the reported protein stability index for R12M .
Result string: 2.8

Query string: I would be grateful if you could share the reported protein stability index for R6G .
Result string: 3.11

Query string: I would be grateful if you could share the reported protein stability index for H20V .
Result string: 3.46

Query string: I would be grateful if you could share the reported protein stability index for R12A .
Result string: 2.77

Query string: I would be grateful if you could share the reported protein stability index for A16P .
Result string: 2.78

Query string: I would be grateful if you could share the reported protein stability index for W7D .
Result string: 5.12

Query string: I would be grateful if you could share the reported protein stability index for V10C .
Result string: 3.99

Query string: I would be grateful if you could share the reported protein stability index for E1Y .
Result string: 3.33

Query string: I would be grateful if you could share the reported protein stability index for N4C .
Result string: 2.73

Query string: I would be grateful if you could share the reported protein stability index for V10T .
Result string: 3.15

Query string: I would be grateful if you could share the reported protein stability index for K15A .
Result string: 3.24

Query string: I would be grateful if you could share the reported protein stability index for R6Y .
Result string: 2.94

Query string: I would be grateful if you could share the reported protein stability index for H19P .
Result string: 2.65

Query string: I would be grateful if you could share the reported protein stability index for T18F .
Result string: 3.33

Query string: I would be grateful if you could share the reported protein stability index for E1I .
Result string: 2.79

Query string: I would be grateful if you could share the reported protein stability index for W7L .
Result string: 4.66

Query string: I would be grateful if you could share the reported protein stability index for V10K .
Result string: 3.15

Query string: I would be grateful if you could share the reported protein stability index for L21I .
Result string: 3.59

Query string: I would be grateful if you could share the reported protein stability index for E22K .
Result string: 4.85

Query string: I would be grateful if you could share the reported protein stability index for K17Y .
Result string: 2.82

Query string: I would be grateful if you could share the reported protein stability index for Q2N .
Result string: 2.88

Query string: I would be grateful if you could share the reported protein stability index for H20E .
Result string: 3.19

Query string: I would be grateful if you could share the reported protein stability index for Q2H .
Result string: 3.12

Query string: I would be grateful if you could share the reported protein stability index for Q2S .
Result string: 2.87

Query string: I would be grateful if you could share the reported protein stability index for H20D .
Result string: 3.09

Query string: I would be grateful if you could share the reported protein stability index for Q2K .
Result string: 2.71

Query string: I would be grateful if you could share the reported protein stability index for V10F .
Result string: 2.74

Query string: I would be grateful if you could share the reported protein stability index for H20C .
Result string: 2.23

Query string: I would be grateful if you could share the reported protein stability index for H19G .
Result string: 3.86

Query string: I would be grateful if you could share the reported protein stability index for N8F .
Result string: 2.8

Query string: I would be grateful if you could share the reported protein stability index for W7A .
Result string: 5.18

Query string: I would be grateful if you could share the reported protein stability index for N8W .
Result string: 2.78

Query string: I would be grateful if you could share the reported protein stability index for E22R .
Result string: 2.26

Query string: I would be grateful if you could share the reported protein stability index for T18N .
Result string: 2.82

Query string: I would be grateful if you could share the reported protein stability index for R6S .
Result string: 2.4

Query string: I would be grateful if you could share the reported protein stability index for L21Y .
Result string: 3.81

Query string: I would be grateful if you could share the reported protein stability index for T9I .
Result string: 3.02

Query string: I would be grateful if you could share the reported protein stability index for W7T .
Result string: 5.14

Query string: I would be grateful if you could share the reported protein stability index for A13Y .
Result string: 3.1

Query string: I would be grateful if you could share the reported protein stability index for R3S .
Result string: 3.47

Query string: I would be grateful if you could share the reported protein stability index for E1N .
Result string: 2.91

Query string: I would be grateful if you could share the reported protein stability index for N8T .
Result string: 2.16

Query string: I would be grateful if you could share the reported protein stability index for V10Y .
Result string: 2.53

Query string: I would be grateful if you could share the reported protein stability index for H19Q .
Result string: 3.73

Query string: I would be grateful if you could share the reported protein stability index for H20I .
Result string: 3.15

Query string: I would be grateful if you could share the reported protein stability index for H19L .
Result string: 3.43

Query string: I would be grateful if you could share the reported protein stability index for A16M .
Result string: 2.9

Query string: I would be grateful if you could share the reported protein stability index for A13Q .
Result string: 2.7

Query string: I would be grateful if you could share the reported protein stability index for H19N .
Result string: 3.56

Query string: I would be grateful if you could share the reported protein stability index for R6A .
Result string: 2.85

Query string: I would be grateful if you could share the reported protein stability index for T18M .
Result string: 2.83

Query string: I would be grateful if you could share the reported protein stability index for P23E .
Result string: 3.95

Query string: I would be grateful if you could share the reported protein stability index for T18R .
Result string: 3.11

Query string: I would be grateful if you could share the reported protein stability index for E22D .
Result string: 3.21

Query string: I would be grateful if you could share the reported protein stability index for L21K .
Result string: 4.92

Query string: I would be grateful if you could share the reported protein stability index for L11Y .
Result string: 3.5

Query string: I would be grateful if you could share the reported protein stability index for E1S .
Result string: 2.4

Query string: I would be grateful if you could share the reported protein stability index for L21E .
Result string: 4.79

Query string: I would be grateful if you could share the reported protein stability index for K17H .
Result string: 2.52

Query string: I would be grateful if you could share the reported protein stability index for K15H .
Result string: 3.22

Query string: I would be grateful if you could share the reported protein stability index for H20P .
Result string: 3.89

Query string: I would be grateful if you could share the reported protein stability index for L11W .
Result string: 3.69

Query string: I would be grateful if you could share the reported protein stability index for N8M .
Result string: 2.15

Query string: I would be grateful if you could share the reported protein stability index for R3K .
Result string: 2.79

Query string: I would be grateful if you could share the reported protein stability index for Q2W .
Result string: 2.78

Query string: I would be grateful if you could share the reported protein stability index for R6H .
Result string: 3.45

Query string: I would be grateful if you could share the reported protein stability index for P23V .
Result string: 4.13

Query string: I would be grateful if you could share the reported protein stability index for N4E .
Result string: 3.37

Query string: I would be grateful if you could share the reported protein stability index for K15V .
Result string: 3.11

Query string: I would be grateful if you could share the reported protein stability index for V10W .
Result string: 2.78

Query string: I would be grateful if you could share the reported protein stability index for T9G .
Result string: 3.94

Query string: I would be grateful if you could share the reported protein stability index for S5D .
Result string: 2.96

Query string: I would be grateful if you could share the reported protein stability index for Q2E .
Result string: 3.55

Query string: I would be grateful if you could share the reported protein stability index for K17V .
Result string: 2.79

Query string: I would be grateful if you could share the reported protein stability index for A13C .
Result string: 3.08

Query string: I would be grateful if you could share the reported protein stability index for R6W .
Result string: 2.07
